Target: Trace amine-associated receptor 1 (Homo sapiens) (UniProt Q96RJ0)
Sequence (Q96RJ0 whole entry, looked up): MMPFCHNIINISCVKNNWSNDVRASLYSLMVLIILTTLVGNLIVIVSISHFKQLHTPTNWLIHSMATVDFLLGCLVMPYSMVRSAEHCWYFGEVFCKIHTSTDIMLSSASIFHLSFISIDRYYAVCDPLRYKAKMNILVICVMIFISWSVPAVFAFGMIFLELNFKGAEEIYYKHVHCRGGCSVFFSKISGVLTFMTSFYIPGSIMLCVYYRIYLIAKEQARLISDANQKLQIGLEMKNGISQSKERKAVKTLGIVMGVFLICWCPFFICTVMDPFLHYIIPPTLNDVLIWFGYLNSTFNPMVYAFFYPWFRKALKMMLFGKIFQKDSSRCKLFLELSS
Experiment: TAAR1 antagonists lowering PEA-driven cAMP, late-stage follow-up, cell-based, fluorescence, human, MDRUN002 (AID 1053178)
Conditions: CHO TAAR1 cells, cAMP TR-FRET, PEA-stimulated antagonism
Calls of active or inactive are those of the source.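 Rule for the calls: active = IC50 at or below 10 µM; inactive = IC50 above 10 µM.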
Entry note: the call must match one of Y for active, N for inactive

Entry N#Cc1c(C(F)(F)F)cc(-c2ccc(Cl)cc2)nc1SCC(=O)N1CCCC1 : call = ?
Y

Entry CC(CN1CCCC1Cc1ccccc1)C(=O)c1ccc2c(c1)OCCO2 (configuration not stated) : call = ?
N

Entry COc1cc(C(=O)CCN2CCC(c3ccccc3)C2)cc(OC)c1OC (configuration not stated) : call = ?
N

Entry N#Cc1c(C(F)(F)F)cc(-c2ccc(Cl)cc2)nc1SCC(=O)Nc1ncccn1 : call = ?
Y

Entry N#Cc1c(C(F)(F)F)cc(-c2ccc(Cl)cc2)nc1SCC(=O)N1CCCCCC1 : call = ?
N

Entry Cc1ccc(C(=O)CCN2CCC(c3ccccc3)C2)cc1 (configuration not stated) : call = ?
N

Entry O=C(CCN1CCC(c2ccccc2)C1)c1ccccc1 (configuration not stated) : call = ?
N
